The entries below are paired with their reported MIC.
System: Acinetobacter baumannii
EXPERIMENT: Antimicrobial activity against oxacillinase-23 producing Acinetobacter baumannii K47-42 assessed as reduction in bacterial growth incubated for 48 hrs by microdilution method
Assay type: functional

SMILES_NOTATION	QUAL	MIC [µg/mL]
NCCCCN1C(=O)N(CCCCN)C(=O)C(Cc2ccc(C(F)(F)F)cc2)(Cc2ccc(C(F)(F)F)cc2)C1=O.O=C(O)C(F)(F)F.O=C(O)C(F)(F)F	>	32
CC(C)(C)c1ccc(CC2(Cc3ccc(C(C)(C)C)cc3)C(=O)N(CCCCNC(=N)N)C(=O)N(CCCCNC(=N)N)C2=O)cc1.O=C(O)C(F)(F)F.O=C(O)C(F)(F)F	=	8
NCCCCN1C(=O)N(CCCCN)C(=O)C(Cc2cc(C(F)(F)F)cc(C(F)(F)F)c2)(Cc2cc(C(F)(F)F)cc(C(F)(F)F)c2)C1=O.O=C(O)C(F)(F)F.O=C(O)C(F)(F)F	=	32
CC(C)(C)c1ccc(CC2(Cc3ccc(C(C)(C)C)cc3)C(=O)N(CCCCN)C(=O)N(CCCCN)C2=O)cc1.O=C(O)C(F)(F)F.O=C(O)C(F)(F)F	=	16
CC(C)(C)c1cc(CC2(Cc3cc(C(C)(C)C)cc(C(C)(C)C)c3)C(=O)N(CCCCNC(=N)N)C(=O)N(CCCCNC(=N)N)C2=O)cc(C(C)(C)C)c1.O=C(O)C(F)(F)F.O=C(O)C(F)(F)F	=	4
N=C(N)NCCCCN1C(=O)N(CCCCNC(=N)N)C(=O)C(Cc2cc(Br)cc(Br)c2)(Cc2cc(Br)cc(Br)c2)C1=O.O=C(O)C(F)(F)F.O=C(O)C(F)(F)F	=	4
